test system: Aspergillus fumigatus; assay: Antimicrobial activity against Aspergillus fumigatus assessed as growth inhibition after 24 to 48 hr by two-fold serial dilution method; assay type: functional
Calls of active or inactive are those of the source. The rule behind the calls is not given here.
endpoint: MIC

Worked cases, answers included:
| compound | experimentalTarget | MIC |
| --- | --- | --- |
| C[C@@H]1C[C@@H]([C@H](O)CC2CC(=O)NC(=O)C2)C(=O)[C@@H](C)C1 [CYCLOHEXIMIDE] | Aspergillus fumigatus | 3.12 µg/mL |
| Cc1ccc(S(=O)(=O)Oc2ccc(-c3nc4ccccc4c(=O)n3-n3c(C)nc4ccccc4c3=O)cc2)cc1 | Aspergillus fumigatus | 6.25 µg/mL |
| Cc1ccc(S(=O)(=O)Oc2ccc(-c3nnnn3-c3ccccc3C(=O)O)cc2)cc1 | Aspergillus fumigatus | inactive |
| Cc1ccc(S(=O)(=O)Oc2ccc(-c3nc4ccccc4c(=O)n3-c3nccs3)cc2)cc1 | Aspergillus fumigatus | 50 µg/mL |
| Cc1ccc(S(=O)(=O)Oc2ccc(-c3nc4ccccc4c(=O)n3-c3nc4ccccc4s3)cc2)cc1 | Aspergillus fumigatus | inactive |
| Cc1ccc(S(=O)(=O)Oc2ccc(-c3nc4ccccc4c4nc5ccccc5n34)cc2)cc1 | Aspergillus fumigatus | 50 µg/mL |
| Cc1ccc(S(=O)(=O)Oc2ccc(-c3nc4ccccc4c(=O)n3-c3ccc(C4=NNC(c5ccccc5)C4)cc3)cc2)cc1 (stereo unspecified) | Aspergillus fumigatus | 12.5 µg/mL |
| Cc1ccc(S(=O)(=O)Oc2ccc(C(=O)Nc3ccccc3-c3nc4ccccc4[nH]3)cc2)cc1 | Aspergillus fumigatus | inactive |
| Cc1ccc(S(=O)(=O)Oc2ccc(-c3nc4ccccc4c(=O)n3-c3ccc(N)cc3)cc2)cc1 | Aspergillus fumigatus | 25 µg/mL |
| COc1ccc(C2CC(c3ccc(-n4c(-c5ccc(OS(=O)(=O)c6ccc(C)cc6)cc5)nc5ccccc5c4=O)cc3)=NN2)cc1 (stereo unspecified) | Aspergillus fumigatus | 12.5 µg/mL |

Report MIC for Cc1ccc(C2CC(c3ccc(-n4c(-c5ccc(OS(=O)(=O)c6ccc(C)cc6)cc5)nc5ccccc5c4=O)cc3)=NN2)cc1 (stereo unspecified) please.
12.5 µg/mL

----------
system: Pseudomonas fluorescens; experiment: Antimicrobial activity against Pseudomonas fluorescens S 97 assessed as growth inhibition after 24 to 48 hr by two-fold serial dilution method; format: functional
Active and inactive are the calls of the source. The calls are words filed in the database; no cut-off is given here.
endpoint: MIC

These solved cases illustrate the format of a correct answer.
| compound | endpoint | result |
| --- | --- | --- |
| Cc1ccc(C2CC(c3ccc(-n4c(-c5ccc(OS(=O)(=O)c6ccc(C)cc6)cc5)nc5ccccc5c4=O)cc3)=NN2)cc1 (configuration not stated) | MIC | inactive |
| Cc1ccc(S(=O)(=O)Oc2ccc(-c3nc4ccccc4c(=O)n3-c3ccc(N)cc3)cc2)cc1 | MIC | 50 µg/mL |
| Cc1ccc(S(=O)(=O)Oc2ccc(-c3nnnn3-c3ccccc3C(=O)O)cc2)cc1 | MIC | 50 µg/mL |
| COc1ccc(C2CC(c3ccc(-n4c(-c5ccc(OS(=O)(=O)c6ccc(C)cc6)cc5)nc5ccccc5c4=O)cc3)=NN2)cc1 (configuration not stated) | MIC | inactive |
| Cc1ccc(S(=O)(=O)Oc2ccc(-c3nc4ccccc4c4nc(=S)[nH]n34)cc2)cc1 | MIC | 50 µg/mL |
| Cc1ccc(S(=O)(=O)Oc2ccc(-c3nc4ccccc4c(=O)n3-n3c(C)nc4ccccc4c3=O)cc2)cc1 | MIC | 50 µg/mL |
| Cc1ccc(S(=O)(=O)Oc2ccc(C3=Nc4ccccc4C4=NCCN34)cc2)cc1 | MIC | 50 µg/mL |
| Cc1ccc(S(=O)(=O)Oc2ccc(-c3nc4ccccc4c(=O)n3-c3nc4ccccc4s3)cc2)cc1 | MIC | 50 µg/mL |
| Cc1ccc(S(=O)(=O)Oc2ccc(-c3nc4ccccc4c4nc5ccccc5n34)cc2)cc1 | MIC | 6.25 µg/mL |
| O=C(N[C@H](CO)[C@H](O)c1ccc([N+](=O)[O-])cc1)C(Cl)Cl | MIC | 6.25 µg/mL |

Which MIC is listed for CC(=O)OCC1=C(C(=O)O)N2C(=O)[C@@H](NC(=O)Cc3cccs3)[C@H]2SC1 ?
6.25 µg/mL

Need MIC, item Cc1ccc(S(=O)(=O)Oc2ccc(-c3nc4ccccc4c(=O)n3-c3ccc(C4=NNC(c5ccccc5)C4)cc3)cc2)cc1 (configuration not stated)
inactive

----------
test system: Staphylococcus aureus; test: Antimicrobial activity against Staphylococcus aureus ATCC 25923 assessed as diameter of growth inhibition zone at 1 mg/ml after 24 hr by agar diffusion method; format: functional; conditions: ATCC 25923, 24 h, read-out: DIZ
endpoint: zone of inhibition at 1000 µg/mL (mm)
Lab book: enter the figure in mm, no units written.

Solved entries (count: 3):
| compound | unitsText | zone of inhibition at 1000 µg/mL |
| --- | --- | --- |
| CC(=O)OCC1=C(C(=O)O)N2C(=O)[C@@H](NC(=O)Cc3cccs3)[C@H]2SC1 [CEPHALOTHIN] | mm | 36 |
| O=C(N[C@H](CO)[C@H](O)c1ccc([N+](=O)[O-])cc1)C(Cl)Cl [CHLORAMPHENICOL] | mm | 42 |
| Cc1ccc(S(=O)(=O)Oc2ccc(-c3nc4ccccc4c(=O)n3-n3c(C)nc4ccccc4c3=O)cc2)cc1 | mm | 19 |

Which zone of inhibition at 1000 µg/mL reading was recorded for the compound Cc1ccc(S(=O)(=O)Oc2ccc(-c3nnnn3-c3ccccc3C(=O)O)cc2)cc1 ?
32

I would be grateful if you could share the reported zone of inhibition at 1000 µg/mL for Cc1ccc(S(=O)(=O)Oc2ccc(C3=Nc4ccccc4C4=NCCN34)cc2)cc1 .
25

----------
test system: Pseudomonas savastanoi pv. phaseolicola; assay: Antimicrobial activity against Pseudomonas syringae pv. phaseolicola GSPB 2828 assessed as diameter of growth inhibition zone at 1 mg/ml after 24 hr by agar diffusion method; assay type: functional; settings: GSPB 2828, 24 h, read-out: DIZ
The entries below come with measured zone of inhibition at 1000 µg/mL values attached.
Use mm as the unit, but write only the number.

Quick check: zone of inhibition at 1000 µg/mL of Cc1ccc(C2CC(c3ccc(-n4c(-c5ccc(OS(=O)(=O)c6ccc(C)cc6)cc5)nc5ccccc5c4=O)cc3)=NN2)cc1 (stereo unspecified) ?
19

// query zone of inhibition at 1000 µg/mL value for entry Cc1ccc(S(=O)(=O)Oc2ccc(-c3nc4ccccc4c4nc5ccccc5n34)cc2)cc1
14

Value lookup for zone of inhibition at 1000 µg/mL; key = Cc1ccc(S(=O)(=O)Oc2ccc(-c3nc4ccccc4c(=O)n3C3=NNC(=O)C3/N=N/c3ccccc3)cc2)cc1 (stereo unspecified)
20

What zone of inhibition at 1000 µg/mL value was documented for this compound, Cc1ccc(S(=O)(=O)Oc2ccc(-c3nc4ccccc4c(=O)n3-n3c(C)nc4ccccc4c3=O)cc2)cc1 ?
14

----------
tested on: Staphylococcus aureus; test: Antimicrobial activity against Staphylococcus aureus ATCC 25923 assessed as diameter of growth inhibition zone at 1 mg/ml after 24 hr by agar diffusion method; type: functional; settings: ATCC 25923, 24 h, read-out: DIZ
endpoint: zone of inhibition at 1000 µg/mL (mm)
// return numeric value only (unit: mm, not printed)

A selection of reference data follows.
| compound | endpoint | number |
| --- | --- | --- |
| Cc1ccc(S(=O)(=O)Oc2ccc(-c3nc4ccccc4c(=O)n3C3=NNC(=O)C3/N=N/c3ccccc3)cc2)cc1 (stereo not drawn) | zone of inhibition at 1000 µg/mL | 32 |
| Cc1ccc(C2CC(c3ccc(-n4c(-c5ccc(OS(=O)(=O)c6ccc(C)cc6)cc5)nc5ccccc5c4=O)cc3)=NN2)cc1 (stereo not drawn) | zone of inhibition at 1000 µg/mL | 43 |

Requested field: zone of inhibition at 1000 µg/mL. Item: Cc1ccc(S(=O)(=O)Oc2ccc(-c3nc4ccccc4c4nc(=O)[nH]n34)cc2)cc1
15

Quick one: zone of inhibition at 1000 µg/mL of Cc1ccc(S(=O)(=O)Oc2ccc(C(=O)Nc3ccccc3-c3nc4ccccc4[nH]3)cc2)cc1 ?
25

Param item = COc1ccc(C2CC(c3ccc(-n4c(-c5ccc(OS(=O)(=O)c6ccc(C)cc6)cc5)nc5ccccc5c4=O)cc3)=NN2)cc1 (stereo not drawn) ; retrieve measured zone of inhibition at 1000 µg/mL.
43

Please give the measured zone of inhibition at 1000 µg/mL for this compound: Cc1ccc(S(=O)(=O)Oc2ccc(-c3nc4ccccc4c4nc(=S)[nH]n34)cc2)cc1
44

What value of measured zone of inhibition at 1000 µg/mL is listed for Cc1ccc(S(=O)(=O)Oc2ccc(-c3nc4ccccc4c(=O)n3-c3ccc(N)cc3)cc2)cc1 ?
14

What value of zone of inhibition at 1000 µg/mL has been recorded for this entry: Cc1ccc(S(=O)(=O)Oc2ccc(-c3nc4ccccc4c4nc5ccccc5n34)cc2)cc1
26
